# System: Serratia marcescens MOR 84-41
# Experiment notes: in vitro antibacterial MIC, agar plate dilution
# Type: cell-based
# Test conditions: Serratia marcescens, MOR8441, 18 h, 35° C., read-out: MIC
Overview of recorded MIC for various compounds
Property measured: MIC (µg/mL)

In [3]: df
Out[3]:
                                   compound                      tested_on    uom  result_operator  assay_value
0  CCn1cc(C(=O)O)c(=O)c2cc(F)c(N3CCN(C)C(c4ccnn4C)C3)cc21 (centres unmarked)  Serratia marcescens MOR 84-41  µg/mL                >           16
1  O=C(O)c1cn(C2CC2)c2cc(N3CCNC(c4ccco4)C3)c(F)cc2c1=O (centres unmarked)  Serratia marcescens MOR 84-41  µg/mL                =          0.5
2  O=C(O)c1cn(C2CC2)c2cc(N3CCNC(c4cc[nH]c4)C3)c(F)cc2c1=O (centres unmarked)  Serratia marcescens MOR 84-41  µg/mL                =          0.5
3  O=C(O)c1cn(C2CC2)c2cc(N3CCNC(c4ccccn4)C3)c(F)cc2c1=O (centres unmarked)  Serratia marcescens MOR 84-41  µg/mL                =            1
4  CCn1cc(C(=O)O)c(=O)c2cc(F)c(N3CCNC(c4ccncc4)C3)c(F)c21 (centres unmarked)  Serratia marcescens MOR 84-41  µg/mL                =            4
5  O=C(O)c1cn(C2CC2)c2cc(N3CCNC(c4cc[nH]n4)C3)c(F)cc2c1=O (centres unmarked)  Serratia marcescens MOR 84-41  µg/mL                =            1
6  O=C(O)c1cn(C2CC2)c2cc(N3CCNC(C4CC4)C3)c(F)cc2c1=O (centres unmarked)  Serratia marcescens MOR 84-41  µg/mL                =         0.06
7  O=C(O)c1cn(C2CC2)c2cc(N3CCNC(c4ccoc4)C3)c(F)cc2c1=O (centres unmarked)  Serratia marcescens MOR 84-41  µg/mL                =         0.25
